- System: biotinyl-Val-oxazolone
- Assay name: self-aminoacylation, catalytic enhancement (BVO) (fold over background); higher = more active; k-Seq, kA / k0A0; sequences stand for … in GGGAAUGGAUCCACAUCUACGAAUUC…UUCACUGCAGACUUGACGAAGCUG
Fewer inactive variants are shown than the library holds.
So basically: self-aminoacylation at 2 or higher? That is y. Lower than 2? That is n.

Below, 5 sequences whose answers are already recorded.
- Seq: "GGACACUUCAAGCAAUCGGUC [Fam1B.1 aminoacylation ribozyme variant]"
  Assigned category: "y"
- Seq: "UAGUUUGCUGAUAGUCGCAAG [Fam3.1 aminoacylation ribozyme variant]"
  Assigned category: "n"
- Seq: "AAUUUUGCAAAUAGUCGCAAG [Fam3.1 aminoacylation ribozyme variant]"
  Assigned category: "y"
- Seq: "CCACCCUUCAAGCAAUCAGUC [Fam1B.1 aminoacylation ribozyme variant]"
  Assigned category: "n"
- Seq: "AAGUCUGCUAAUAGACGCAAG [Fam3.1 aminoacylation ribozyme variant]"
  Assigned category: "n"

(Q) Say whether AAGAUUACUAAUAGUCGCAAG [Fam3.1 aminoacylation ribozyme variant] shows self-aminoacylation of 2 or more.
(A) n

(Q) State whether the measured self-aminoacylation reaches 2, counting equality as reaching it, for AUUACUCGGGUCAUCGAGUGA [Fam2.1 aminoacylation ribozyme variant]
(A) y

(Q) Hello, I need to know if CUAAUUCAAACAAACGGUCUG [Fam1A.1 aminoacylation ribozyme variant] has measured self-aminoacylation not below 2. Thanks!
(A) n

(Q) Check the entry AUACCUCAAACAAUCGGUCUG [Fam1A.1 aminoacylation ribozyme variant] : does self-aminoacylation equal or exceed 2?
(A) n

(Q) Exam item: decide whether the reported self-aminoacylation for CUACUUCAAACACUCAGUCUG [Fam1A.1 aminoacylation ribozyme variant] is at least 2.
(A) n

(Q) Hi, just wondering whether AUCACCCUGGUCGUCGAGUGA [Fam2.1 aminoacylation ribozyme variant] shows self-aminoacylation of 2 or higher.
(A) n

(Q) Quick check: does AUUACCCUGGUCAUCGAGUUC [Fam2.1 aminoacylation ribozyme variant] have self-aminoacylation greater than or equal to 2?
(A) n

(Q) Evaluate CUACCUAAAACAAUCGGUCUG [Fam1A.1 aminoacylation ribozyme variant] : self-aminoacylation at minimum 2?
(A) n

(Q) Does the reported self-aminoacylation for AAGUUUGCAAAUAGCCGCAAG [Fam3.1 aminoacylation ribozyme variant] fall at or above the 2 mark?
(A) n

* * *

- System: biotinyl-Leu-oxazolone
- Assay name: self-aminoacylation, catalytic enhancement (BLO) (fold over background); higher = more active; k-Seq, kA / k0A0; sequences stand for … in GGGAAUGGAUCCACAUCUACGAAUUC…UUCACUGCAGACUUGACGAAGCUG
This sample holds only a part of the variants without activity.
Binary classification by self-aminoacylation, with 3 as an inclusive lower bound for class 1; all other cases are class 0.

These recorded examples may help you get a feel for the data.
- Seq: "AUUCAGCUAGGUCAUCGGGCG [Fam2.2 aminoacylation ribozyme variant]"
  Assigned category: "class 1"
- Seq: "AGUCACCAAGGUCAUCGGGUG [Fam2.2 aminoacylation ribozyme variant]"
  Assigned category: "class 1"
- Seq: "UUUCACCUAGGUCAUCGGCUG [Fam2.2 aminoacylation ribozyme variant]"
  Assigned category: "class 0"

(Q) Check the entry AUUACCCUGGUAAUCAAGUGA [Fam2.1 aminoacylation ribozyme variant] : does self-aminoacylation equal or exceed 3?
(A) class 1

(Q) Quick check, self-aminoacylation >= 3? AAGUUUGCUAAGAGUAGCAAG [Fam3.1 aminoacylation ribozyme variant]
(A) class 0

(Q) Given CUACCUCAAAUAAUCGGUCUG [Fam1A.1 aminoacylation ribozyme variant] , state whether its self-aminoacylation is at least 3.
(A) class 0

(Q) Check the entry CCACAUUUGAAGCAAUCGGUC [Fam1B.1 aminoacylation ribozyme variant] : does self-aminoacylation equal or exceed 3?
(A) class 0

(Q) Exam item: decide whether the reported self-aminoacylation for CAGCACUUCAAGCAAUCGGUC [Fam1B.1 aminoacylation ribozyme variant] is at least 3.
(A) class 0

(Q) Hello, I need to know if AUUCACCUACGUCAUGGGGUG [Fam2.2 aminoacylation ribozyme variant] has measured self-aminoacylation not below 3. Thanks!
(A) class 0

(Q) Please indicate if the recorded self-aminoacylation for UAGUAUGCUAAUAGUCGCAAG [Fam3.1 aminoacylation ribozyme variant] meets or exceeds 3.
(A) class 0

(Q) Is reported self-aminoacylation greater than or equal to 3 here: ACACACUACAAGCAAUCGGUC [Fam1B.1 aminoacylation ribozyme variant]
(A) class 0
